Each record here notes measured T/C.
Test system: BDF1 mice, P388 leukemia ip, median survival T/C
Assay: NCI In Vivo Anticancer Drug Screen. Data for tumor model P388 Leukemia (intraperitoneal) in B6D2F1 (BDF1) mice
Conditions: endpoint: median survival time; dose: 100.0 mg/kg/injection; schedule: Q01DX009 (ip); vehicle: saline with Tween-80; higher = longer survival
Toxic doses and inconclusive results are not listed.

{"columns": ["compound", "test-result"],
 "data": [
  ["CN(C)P(N)(=S)N(C)C", "91 % of control"],
  ["CN(C)CCCN1c2ccc(O)cc2Sc2ccc(Cl)cc21", "100 % of control"]
]}

According to the records, this compound CN(C)c1oc2ccc3ccccc3c2c(=O)c1C#N displays T/C of 97 % of control

Notebook: Cc1nc2ccccc2nc1CC(=O)c1ccccc1 , T/C read as 104 % of control

# compound Nc1nc2c(ccc3ccccc32)s1 ; its T/C = 122 % of control

Consider Cc1cc(C)c2nccc(/C=C/c3ccc(N(C)C)cc3)c2c1 . Its measured T/C is 103 % of control

Briefly, T/C measured for CN(C)c1ccc(/C=C/c2ccc3ccccc3[n+]2[O-])cc1 : 97 % of control

###

System: BDF1 mice, P388 leukemia ip, median survival T/C
Test: NCI In Vivo Anticancer Drug Screen. Data for tumor model P388 Leukemia (intraperitoneal) in B6D2F1 (BDF1) mice
Conditions: endpoint: median survival time; dose: 200.0 mg/kg/injection; schedule: Q04DX003 (ip); vehicle: saline with Tween-80; higher = longer survival
Inconclusive results and toxic doses are left out.
metric: T/C

T/C for BDF1 mice, P388 leukemia ip, median survival T/C with input CCCCCCOC(=O)C(O)c1ccccc1 (stereo not given) equals 95 % of control

The molecule Cn1nnnc1N/N=C(\Br)c1ccccc1 , when measured on BDF1 mice, P388 leukemia ip, median survival T/C, yielded T/C of 95 % of control

Item CCOc1ccc(C(=O)Nc2c(C)cc(C)cc2C)cc1 was tested on BDF1 mice, P388 leukemia ip, median survival T/C; the reported T/C is 112 % of control

BDF1 mice, P388 leukemia ip, median survival T/C T/C of C=CCOc1ccccc1-c1nnn(C)n1 is 97 % of control

###

Test system: BDF1 mice, P388 leukemia ip, median survival T/C
Experiment: NCI In Vivo Anticancer Drug Screen. Data for tumor model P388 Leukemia (intraperitoneal) in B6D2F1 (BDF1) mice
Details: endpoint: median survival time; dose: 25.0 mg/kg/injection; schedule: Q01DX009 (ip); vehicle: saline with Tween-80
Toxic doses and inconclusive results are not listed. The calls were made as follows: active = survival T/C of 150% or more; inactive = T/C below 125% in these data.
One label from this list, please: active, inactive

{"columns": ["compound", "label-value"],
 "data": [
  ["Cc1cc(-c2ccccc2)[s+]s1", "inactive"],
  ["CCCCCCC(=O)/C=C/c1cc(OC)ccc1OC", "inactive"],
  ["COc1ccc(-c2c[se]c(=S)s2)cc1", "inactive"],
  ["CC1(C)N=C(N)N=C(N)N1c1ccc(CNC(=O)Nc2ccc(S(=O)(=O)F)cc2)c(Cl)c1", "active"]
]}

Exam item: // param item: CN(C)c1ccc(/C=C2\C=Cc3ccccc32)cc1 ; yields the recorded call
Marked response: inactive

Exam item: Outcome logged for COc1cccc(OC)c1C(c1c(OC)cccc1OC)c1c(OC)cccc1OC in this assay:
Marked response: inactive

Exam item: For this compound, state the assay outcome: CC(C)COC(=O)c1cc(O)c(O)c(O)c1
Marked response: inactive

Exam item: Hello, I am checking results. What call was entered for Cn1nnnc1N/N=C(\Br)c1ccccc1 ?
Marked response: inactive

Exam item: Given COc1ccc(S(=O)(=O)Nc2c([N+](=O)[O-])cc([N+](=O)[O-])c3ccccc23)cc1 , state the outcome it received in this test.
Marked response: inactive

Exam item: Can you look up the reported call for CN(C)c1ccc(N=C2C=CC(=O)C=C2)cc1 for me?
Marked response: inactive

Exam item: GET /call?item= CC(C)C(C)/C=C\C(C)C1CCC2C3=CCC4CC(=O)CCC4(C)C3CCC21C (stereo unspecified) returns the recorded outcome of this test.
Marked response: inactive

Exam item: Given COC(=O)c1cc(O)c(O)c(OC)c1 , state the outcome it received in this test.
Marked response: inactive

Exam item: How was O=[N+]([O-])c1ccc(Sc2ccccc2)c2nonc12 classified in this test?
Marked response: inactive

Exam item: Check the results log: what was the call for O=[N+]([O-])c1ccc(NCc2ccccc2)nc1 ?
Marked response: inactive

Exam item: Record lookup: outcome of this test for Cc1c2cnccc2c(C)c2c1c1ccccc1n2CC1CO1 (stereo unspecified) ?
Marked response: inactive

Exam item: Please share the test call associated with CCOCc1cc([N+](=O)[O-])cc([N+](=O)[O-])c1O .
Marked response: inactive

###

Tested on: BDF1 mice, P388 leukemia ip, median survival T/C
Assay: NCI In Vivo Anticancer Drug Screen. Data for tumor model P388 Leukemia (intraperitoneal) in B6D2F1 (BDF1) mice
Conditions: endpoint: median survival time; dose: 100.0 mg/kg/injection; schedule: Q01DX009 (ip); vehicle: saline with Tween-80; higher = longer survival
Inconclusive results and toxic doses are left out.
metric: T/C

Example compounds with recorded T/C:
{"columns": ["compound", "target-desc", "T/C"],
 "data": [
  ["CCCCCCC(=O)/C=C/c1cc(OC)ccc1OC", "BDF1 mice, P388 leukemia ip, median survival T/C", "104 % of control"],
  ["CCCCC(NC(C)=O)C(=O)O (stereo not drawn)", "BDF1 mice, P388 leukemia ip, median survival T/C", "119 % of control"],
  ["CCCCS(=O)(=O)OCCCCOS(=O)(=O)CCCC", "BDF1 mice, P388 leukemia ip, median survival T/C", "113 % of control"],
  ["Nc1n[nH]c(N)n1.[Ni]", "BDF1 mice, P388 leukemia ip, median survival T/C", "100 % of control"],
  ["COc1cccc(OC)c1C(c1c(OC)cccc1OC)c1c(OC)cccc1OC", "BDF1 mice, P388 leukemia ip, median survival T/C", "120 % of control"],
  ["O=C(O)CSc1ccc(NC(=O)NC2CCCCC2)cc1", "BDF1 mice, P388 leukemia ip, median survival T/C", "105 % of control"],
  ["NC(=O)CC(NC(=O)OCc1ccccc1)C(=O)OCc1ccccc1 (stereo not drawn)", "BDF1 mice, P388 leukemia ip, median survival T/C", "100 % of control"],
  ["O=[N+]([O-])c1ccc(NS(=O)(=O)c2ccc(Cl)c(Cl)c2Cl)c([N+](=O)[O-])c1", "BDF1 mice, P388 leukemia ip, median survival T/C", "102 % of control"],
  ["O=C1SC2(CCCCC2)SC1=O", "BDF1 mice, P388 leukemia ip, median survival T/C", "104 % of control"],
  ["COc1cccc(OC)c1-c1oc2ccccc2c(=O)c1O", "BDF1 mice, P388 leukemia ip, median survival T/C", "107 % of control"]
]}

T/C recorded for this compound, Cn1nnc2nnc(-c3ccccc3)n21 , is 100 % of control

So for CCC(C(=O)OC)C1CCCCC1 (stereo not drawn) , the logged T/C turned out to be 107 % of control

The value of T/C measured for the compound CCOC(=O)/C(=C(/N)C1OC(COC(c2ccccc2)(c2ccccc2)c2ccccc2)C2OC(C)(C)OC12)C1CC(=O)N(C)C1=O (stereo not drawn) turned out to be 90 % of control

Given item c1nc(SC2CCCC2)c2[nH]cnc2n1 , the value recorded as its T/C is 100 % of control

Consider O=C(NC(=O)c1c(F)cccc1F)Nc1ccc(OCc2ccccc2)cc1 . Its measured T/C is 86 % of control

Form: compound = Cc1c2ccnc(-c3ccccc3)c2cc2c1[nH]c1ccccc12 ; T/C = 100 % of control

Input Cc1cccn2c(C)nnc12 . Output T/C: 99 % of control

Form field T/C, entry COC(OC)c1[nH]c(=S)[nH]c(=O)c1Cc1cccc2ccccc12 : 111 % of control

###

System: BDF1 mice, P388 leukemia ip, median survival T/C
Experiment: NCI In Vivo Anticancer Drug Screen. Data for tumor model P388 Leukemia (intraperitoneal) in B6D2F1 (BDF1) mice
Settings: endpoint: median survival time; dose: 6.25 mg/kg/injection; schedule: Q01DX009 (ip); vehicle: saline
Toxic doses and inconclusive results are not listed. Rule for the calls: active = survival T/C of 150% or more; inactive = T/C below 125% in these data.
# output must be one of TRUE for active, FALSE for inactive

# example entries with known answers
{"columns": ["structure-smiles-string", "target-desc", "label-value"],
 "data": [
  ["CNC(=N)c1ccc(NC(=N)c2ccc(NC(=N)c3ccc(NC(=O)Nc4ccc(C(=N)NC)cc4)cc3)cc2)cc1", "BDF1 mice, P388 leukemia ip, median survival T/C", "TRUE"],
  ["CN1CCN(CCCN2c3ccccc3Sc3ccc(Cl)cc32)CC1", "BDF1 mice, P388 leukemia ip, median survival T/C", "FALSE"]
]}

Please turn your attention to the following entry.
Exam item: Which outcome was entered for the compound Brc1ccc(C[n+]2ccccc2)cc1 in this test?
Marked response: FALSE

Taken from PubChem BioAssay AID328.
